Each entry below lists one item and its recorded CC50 value.
Experiment: Cytotoxicity against human MAGI-CCR5 cells assessed as cell viability by MTS assay in presence of 2% serum
Assay type: cell-based

See these solved cases before continuing.
- O=C(O)c1ccc(O)c(Cc2ccc3cc[nH]c3c2)c1: > 100 µM
- O=C(O)c1cccc(Cn2ccc3ccc(-c4ccc5ccn(Cc6ccc(F)cc6)c5c4)cc32)c1: 52.2 µM
- COc1cccc(-n2ccc3ccc(Cc4cccc(C(=O)O)c4)cc32)c1: > 100 µM
- O=C(O)c1cccc(Cc2ccc3[nH]ccc3c2)c1: > 100 µM
- COc1cc(Cc2ccc3cc[nH]c3c2)cc(C(=O)O)c1: > 100 µM
- COc1ccc(C(=O)O)cc1Cc1ccc2cc[nH]c2c1: > 100 µM
- O=C(O)c1cc(O)cc(Cc2ccc3cc[nH]c3c2)c1: > 100 µM
- O=C(O)c1cccc(COc2cccc(-c3ccc4ccn(Cc5cccc(C(=O)O)c5)c4c3)c2)c1: > 100 µM

In one line, give reported CC50 of the entry COc1ccc(Cn2ccc3ccc(Cc4cccc(C(=O)O)c4)cc32)cc1 . 92.7 µM

Answer with the recorded CC50 of O=C(O)c1cccc(Cc2ccc3ccn(Cn4ccc5ccc(Cc6cccc(C(=O)O)c6)cc54)c3c2)c1 only. > 100 µM
